Reference source for all entries: ChEMBL document CHEMBL3046083

tested on: Nakaseomyces glabratus; assay: Antimicrobial activity against Candida glabrata ATCC 10233 by broth dilution method; assay type: functional
Catalogue of compounds with associated MIC50
Unit µg/mL implied. Number only.

Some compounds with known MIC50 results, for comparison:
> print(dat)
                                smiles.data  units.symbol  experimental.result
1  CCOc1c(/C=N\NC(=O)c2ccncc2)cccc1CN1CCN(C)CC1         µg/mL                 12.8
2  CCCN(CCC)Cc1cccc(/C=N\NC(=O)c2ccncc2)c1OCC         µg/mL                 12.8

Data request: Return reported MIC50; argument: CCOc1c(/C=N\NC(=O)c2ccncc2)cccc1CN(C)C
Data returned: 25.6

Data request: For the compound shown here, CCOc1ccccc1/C=N\NC(=O)c1ccncc1 , give the reported MIC50.
Data returned: 25.6

Data request: So what's the measured MIC50 for this one? CCOc1c(/C=N\NC(=O)c2ccncc2)cccc1CN1CCCC1
Data returned: 12.8

----------
test system: Escherichia coli; test: Antimicrobial activity against Escherichia coli ATCC 25922 at 100 ug/ml after 24 to 48 hr by agar diffusion method; assay type: functional; details: read-out: DIZ
Entries and their zone of inhibition at 100 µg/mL
The reply should contain only the number, in mm.

Data request: Reported zone of inhibition at 100 µg/mL for CCOc1c(/C=N\NC(=O)c2ccncc2)cccc1CN1CCN(C)CC1 : what is it?
Data returned: 32

Data request: What does the record list as zone of inhibition at 100 µg/mL for CCOc1c(/C=N\NC(=O)c2ccncc2)cccc1CN1CCCC1 ?
Data returned: 27

Data request: Query (compound): CCOc1c(/C=N\NC(=O)c2ccncc2)cccc1CN1CCOCC1 ; field requested: zone of inhibition at 100 µg/mL
Data returned: 31

Data request: Consider the compound CCOc1c(/C=N\NC(=O)c2ccncc2)cccc1CN(CC)CC and give its measured zone of inhibition at 100 µg/mL.
Data returned: 20

Data request: Would you mind telling me what zone of inhibition at 100 µg/mL value was observed for CCOc1ccccc1/C=N\NC(=O)c1ccncc1 ?
Data returned: 18

----------
// MIC lookup, one value per entry
test system: Candida albicans; test: Antimicrobial activity against Candida albicans ATCC 10231 by broth dilution method; format: functional
A bare number is not enough; add the unit after it.

Worked cases, answers included:
> print(dat)
                                smiles.data  experimental.result
1  CCCN(CCC)Cc1cccc(/C=N\NC(=O)c2ccncc2)c1OCC             25 µg/mL
2            CCOc1ccccc1/C=N\NC(=O)c1ccncc1             50 µg/mL
3  CCOc1c(/C=N\NC(=O)c2ccncc2)cccc1CN1CCCCC1           12.5 µg/mL
4    CCOc1c(/C=N\NC(=O)c2ccncc2)cccc1CN(C)C             25 µg/mL
5  CCOc1c(/C=N\NC(=O)c2ccncc2)cccc1CN(CC)CC             25 µg/mL

Read the next record carefully.
Data request: Enter reported MIC observed with Candida albicans for CCOc1c(/C=N\NC(=O)c2ccncc2)cccc1CN1CCOCC1
Data returned: 12.5 µg/mL

----------
system: Escherichia coli; test: Antimicrobial activity against Escherichia coli ATCC 25922 after 24 hr by broth dilution method; format: functional; details: ATCC 25922, 24 h
parameter_measured: MIC50 (µg/mL)
The figure you give is taken to be in µg/mL; do not add the unit.

Look over these answered cases.
> print(dat)
                                smiles.data  parameter.measured  experimental.result
1    CCOc1c(/C=N\NC(=O)c2ccncc2)cccc1CN(C)C               MIC50                 12.8
2  CCOc1c(/C=N\NC(=O)c2ccncc2)cccc1CN(c1ccccc1)c1ccccc1               MIC50                  3.2
3  CCOc1c(/C=N\NC(=O)c2ccncc2)cccc1CN1CCOCC1               MIC50                  3.2
4  CCOc1c(/C=N\NC(=O)c2ccncc2)cccc1CN1CCCC1               MIC50                  3.2
5  CCCCN(CCCC)Cc1cccc(/C=N\NC(=O)c2ccncc2)c1OCC               MIC50                  6.4

Data request: Any idea what MIC50 was measured for CCOc1ccccc1/C=N\NC(=O)c1ccncc1 ?
Data returned: 25.6

Data request: Would you mind telling me what MIC50 value was observed for CCOc1c(/C=N\NC(=O)c2ccncc2)cccc1CN1CCN(C)CC1 ?
Data returned: 3.2

----------
Listed molecules paired with reported MIC
test system: Nakaseomyces glabratus; assay: Antimicrobial activity against Candida glabrata ATCC 10233 by broth dilution method; format: functional
Supply the numeric figure in µg/mL, leaving out any unit text.

Use the examples below as a reference point.
> print(dat)
                                smiles.data  units.symbol  experimental.result
1  CCCN(CCC)Cc1cccc(/C=N\NC(=O)c2ccncc2)c1OCC         µg/mL                 12.5
2            CCOc1ccccc1/C=N\NC(=O)c1ccncc1         µg/mL                   25
3  CCOc1c(/C=N\NC(=O)c2ccncc2)cccc1CN(CC)CC         µg/mL                   25
4  CCOc1c(/C=N\NC(=O)c2ccncc2)cccc1CN1CCCCC1         µg/mL                 12.5
5  CCOc1c(/C=N\NC(=O)c2ccncc2)cccc1CN1CCN(C)CC1         µg/mL                 12.5
6  CCOc1c(/C=N\NC(=O)c2ccncc2)cccc1CN1CCCC1         µg/mL                 12.5
7  CCOc1c(/C=N\NC(=O)c2ccncc2)cccc1CN(c1ccccc1)c1ccccc1         µg/mL                 12.5
8  CCOc1c(/C=N\NC(=O)c2ccncc2)cccc1CN1CCNCC1         µg/mL                 12.5

Data request: What measured MIC is associated with CCOc1c(/C=N\NC(=O)c2ccncc2)cccc1CN(C)C on Nakaseomyces glabratus?
Data returned: 25

Data request: What reported MIC corresponds to CCCCN(CCCC)Cc1cccc(/C=N\NC(=O)c2ccncc2)c1OCC on Nakaseomyces glabratus?
Data returned: 12.5

Data request: Could you share what MIC was measured for CCOc1c(/C=N\NC(=O)c2ccncc2)cccc1CN1CCOCC1 , tested on Nakaseomyces glabratus?
Data returned: 12.5

----------
test system: Candida albicans; assay: Antimicrobial activity against Candida albicans ATCC 10231 by broth dilution method; assay type: functional
parameter_measured: MIC50 (µg/mL)
Value expressed in µg/mL; do not type the unit.

> print(dat)
                              smiles.data  units.symbol  experimental.result
1  CCOc1c(/C=N\NC(=O)c2ccncc2)cccc1CN(C)C         µg/mL                 12.8

Data request: So what MIC50 did CCOc1c(/C=N\NC(=O)c2ccncc2)cccc1CN1CCN(C)CC1 get with Candida albicans?
Data returned: 6.4

Data request: Kindly state the measured MIC50 obtained for CCOc1c(/C=N\NC(=O)c2ccncc2)cccc1CN1CCOCC1 with Candida albicans.
Data returned: 6.4

Data request: Which measured MIC50 belongs to CCOc1c(/C=N\NC(=O)c2ccncc2)cccc1CN1CCCC1 , tested on Candida albicans?
Data returned: 6.4

Data request: Item CCOc1ccccc1/C=N\NC(=O)c1ccncc1 with Candida albicans - MIC50?
Data returned: 25.6

----------
In this section we review reported MIC50 values for a set of molecules.
tested on: Nakaseomyces glabratus; test: Antimicrobial activity against Candida glabrata ATCC 10233 by broth dilution method; assay type: functional
Reply with just the number (in µg/mL).

> print(dat)
                                smiles.data           tested.system  units.symbol  experimental.result
1  CCOc1c(/C=N\NC(=O)c2ccncc2)cccc1CN1CCOCC1  Nakaseomyces glabratus         µg/mL                 12.8
2  CCCCN(CCCC)Cc1cccc(/C=N\NC(=O)c2ccncc2)c1OCC  Nakaseomyces glabratus         µg/mL                 12.8
3  CCOc1c(/C=N\NC(=O)c2ccncc2)cccc1CN1CCCCC1  Nakaseomyces glabratus         µg/mL                 12.8
4  CCOc1c(/C=N\NC(=O)c2ccncc2)cccc1CN1CCNCC1  Nakaseomyces glabratus         µg/mL                 12.8
5  CCOc1c(/C=N\NC(=O)c2ccncc2)cccc1CN(c1ccccc1)c1ccccc1  Nakaseomyces glabratus         µg/mL                 12.8

Data request: Please give the measured MIC50 for this molecule: CCOc1c(/C=N\NC(=O)c2ccncc2)cccc1CN(CC)CC
Data returned: 25.6
